Target: Torsin-1A-interacting protein 2 (Homo sapiens)
Experiment: LULL1 binders on small-molecule microarray, primary screen, cell lysate, human LULL1 lysate, 635/667 nm fluorescence (AID 1092);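 note: probe is lysate of COS7 cells overexpressing human LULL1; score merges per-feature 667 nm fluorescence with signal-to-noise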
Conditions: hLULL1 lysate binding, 635 nm fluorescence, higher = more signal
Listed compounds paired with reported composite z-score

[
  {
    "compound": "C[C@@H](c1ccccc1)N1C(=O)[C@H]2[C@H]3[C@H](O)[C@H](O)CC(=NNC(=O)OCc4ccccc4)[C@@H]3CC[C@H]2C1=O",
    "composite z-score": 0.0265
  },
  {
    "compound": "Cc1cc2c(nc1C)CCCCN2CC(O)CN1CCCc2nc(-c3ccc(Br)cc3)ccc21 (centres undefined)",
    "composite z-score": -0.0639
  },
  {
    "compound": "COC(=O)[C@@H]1CC[C@H](C)[C@@H](c2ccc(C)cc2)N1C(=O)c1ccc(C=NO[C@@H](C)c2cc(-c3c(C)cc(C)cc3C)no2)cc1",
    "composite z-score": 0.919
  },
  {
    "compound": "CC(=O)OC[C@H]1O[C@@H](ON=C(C)CCN2CCCCc3nc(C)c(C)cc32)[C@H](OC(C)=O)[C@@H](OC(C)=O)[C@@H]1OC(C)=O",
    "composite z-score": 1.07
  }
]
